Data origin: paper PMC11249646

Target: CIB1 and αIIb interaction (CIB1-GST : F-αIIb peptide) (Homo sapiens, UniProt Q99828)
Construct: made in house; host or cells: BL-21 plus RIL cells (E. coli)
Experiment: FP assay, 1536-well qHTS format (primary and confirmatory screen)
Type: binding
Conditions: 1536-well qHTS of 14,782 compounds; read-out: intraplate control IC50
pIC50: −log10 of the molar value.
property-measured: pIC50

compound="Brc1c(Br)c(Br)c2[nH]nnc2c1Br [NCGC00092352-04, 4,5,6,7-tetrabromobenzotriazole, reference compound]" property_measured=pIC50 result=~4.97

* * *

Target: CIB1 and αIIb interaction (CIB1-GST : F-αIIb peptide) (Homo sapiens)
Construct: made in house; host or cells: BL-21 plus RIL cells (E. coli)
Sequence (Q99828 1-191): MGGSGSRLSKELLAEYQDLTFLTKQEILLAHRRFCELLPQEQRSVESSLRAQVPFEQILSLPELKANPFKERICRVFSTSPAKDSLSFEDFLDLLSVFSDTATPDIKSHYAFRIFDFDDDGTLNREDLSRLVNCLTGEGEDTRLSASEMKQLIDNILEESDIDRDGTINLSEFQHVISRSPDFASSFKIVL
Assay: FP assay, 1536-well qHTS format (primary and confirmatory screen)
Assay type: binding
Settings: qHTS primary screen hits, Table S2; negative = inhibition
Below, each entry is listed with its recorded Efficacy (%).
property-measured: Efficacy (%)

compound="CO[C@@]1(NC(=O)CSCC#N)C(=O)N2C(C(=O)[O-])=C(CSc3nnnn3C)CS[C@@H]21.[Na+] [NCGC00023016-07]" property_measured="Efficacy (%)" numeric_value=-29
compound="CCN(CC)C(=S)SSC(=S)N(CC)CC [NCGC00016000-10]" property_measured="Efficacy (%)" numeric_value=-67
compound="NC(=O)c1ccc(Cc2c(-c3cccc(-c4ccccc4)c3)nn(-c3nc(C(=O)O)cs3)c2O)cc1.O=C(O)C(F)(F)F [NCGC00356638-01]" property_measured="Efficacy (%)" numeric_value=-59
compound="Cc1ccc(CNc2ncnc3ccc(-c4ccc(CO)o4)cc23)o1.O=C(O)C(F)(F)F [NCGC00188654-01]" property_measured="Efficacy (%)" numeric_value=-45
compound="Cc1ccc(C)c(SC2=NS(=O)(=O)c3cc(C(=O)Nc4ccc5ncccc5c4)ccc32)c1 [NCGC00238689-01]" property_measured="Efficacy (%)" numeric_value=-27
compound="CCCCCCCCCCCC[N+](C)(C)Cc1ccccc1.[Cl-] [NCGC00164245-03]" property_measured="Efficacy (%)" numeric_value=-38
compound="O=C(O)C(F)(F)F.OCc1ccc(-c2ccc3ncnc(N4CCOCC4)c3c2)o1 [NCGC00238384-01]" property_measured="Efficacy (%)" numeric_value=-42
compound="CN(Cc1cnc2nc(N)nc(N)c2n1)c1ccc(C(=O)N[C@@H](CCC(=O)O)C(=O)O)cc1 [NCGC00260705-01]" property_measured="Efficacy (%)" numeric_value=-58
